- System: A549
- protocol.text: NCI tumour cell line growth inhibition, 48 h
Activity calls are given as the source filed them. Cut-off read from the data, not from the text of the source: active = GI50 up to about 1.1 µM and inactive = higher.

| compound | target.under.test | GI50 |
| --- | --- | --- |
| C[C@H](CCC(=O)O)[C@H]1CC[C@H]2[C@@H]3[C@@H](O)C[C@@H]4C[C@H](O)CC[C@]4(C)[C@H]3CC[C@]12C | A549 | 61.4 µM (inactive) |
| c1ccc(C2=NCCc3cc4c(cc32)OCO4)cc1 | A549 | > 100 µM (inactive) |
| CC(=O)NCCC1CN(C(=O)/C=C/I)c2ccccc21 (stereo unspecified) | A549 | 17.2 µM (inactive) |
| CN(C)CCCNc1c2c(=O)n(C)c(=O)nc-2n(C)c2ccccc12 | A549 | 4.74 µM (inactive) |
| COc1cc(C=C2C(=O)OC(C)(C)OC2=O)cc(OC)c1OC | A549 | > 100 µM (inactive) |
| CCOC(=O)Nc1cc2ccccc2c(/N=N/c2ccccc2)c1O | A549 | > 100 µM (inactive) |
| O=C1C=CC2(C=C1)CCC(=O)O2 | A549 | 20.6 µM (inactive) |
| N#CCc1c(F)c(F)c(F)c(F)c1F | A549 | > 100 µM (inactive) |
| C=CC(C)C1(CCCOCc2ccccc2)C(=S)N2CCC3(CC24CCCC14)OCCO3 (stereo unspecified) | A549 | 16 µM (inactive) |
| Oc1ccc(Cl)cc1Sc1cc(Cl)ccc1O | A549 | 26.8 µM (inactive) |
| N#CC(c1cc(Cl)ncn1)c1nc2cc(C(F)(F)F)ccc2s1 (stereo unspecified) | A549 | 6.01 µM (inactive) |
| COc1cccc(CSCC(=O)O)c1 | A549 | > 100 µM (inactive) |
| CC12C=CC(=O)C=C1CCC1C3CCC(O)(C(=O)CO)C3(C)CC(O)C12F (stereo unspecified) | A549 | > 100 µM (inactive) |
| CCOC(=O)c1c(N=C(S)Nc2ccccc2)sc2c1CCN(C)C2 | A549 | > 100 µM (inactive) |
| N#CCCn1[nH]c(=O)c(Cl)c(Cl)c1=O | A549 | 22.7 µM (inactive) |
| CCCCCCCCCCCCCCCC(=O)Nc1ccn(C2OC(CO)C(O)C2O)c(=O)n1 (stereo unspecified) | A549 | 2.62 µM (inactive) |
| C/C=C\C(CC(=O)NCCC1CN(S(=O)(=O)c2ccc(C)cc2)c2ccccc21)CC(=O)OC (stereo unspecified) | A549 | > 100 µM (inactive) |
| C/C=C/C#CC#C/C=C/C=C/C(O)CCO (stereo unspecified) | A549 | > 23.1 µM (inactive) |
| O=C(c1cccs1)N(C(=O)N1CCN(c2ccccc2)CC1)S(=O)(=O)c1ccccc1 | A549 | 32.8 µM (inactive) |
| CCc1ccccc1NC(=O)C1=C(C)NC(C)=C(C(=O)Nc2c(CC)cccc2CC)C1c1ccc2c(c1)OCO2 (stereo unspecified) | A549 | 17.6 µM (inactive) |
| C[C@H](CC[C@@H](O)C(C)(C)O)[C@H]1CC[C@@]2(C)[C@@H]3CC=C4[C@@H](CC[C@H](OC5OC(CO)C(O)C(O)C5O)C4(C)C)[C@]3(C)C(=O)C[C@]12C (stereo partly specified) | A549 | 37.2 µM (inactive) |

====

- Tested on: A549
- protocol.text: NCI tumour cell line growth inhibition, 48 h
Calls of active or inactive are those of the source. Cut-off read from the data, not from the text of the source: active = GI50 up to about 1.1 µM and inactive = higher.
Quick list: GI50 per entry.
recorded.metric: GI50

| compound | assay.result |
| --- | --- |
| Cn1cnc([N+](=O)[O-])c1Sc1nc2cc(Cl)c(F)cc2[nH]1 | 15.3 µM (inactive) |
| COc1ccc(Cc2c(N)[nH]c(=O)[nH]c2=O)cc1 | > 100 µM (inactive) |
| Nc1cnc(Nc2cccc3ccccc23)o1 | > 10 µM (inactive) |
| O=c1[nH]nc(Cc2ccc(Cl)cc2)n1/N=C/c1ccc([N+](=O)[O-])o1 | 3.42 µM (inactive) |
| O=C1C(=CNc2ccccc2Cl)C(=O)N(c2ccccc2)C(=O)N1c1ccccc1 | > 100 µM (inactive) |
| COc1ccc(COCC[C@H](C)OC2OC(CO[Si](C)(C)C(C)(C)C)C(OC(=O)CCCN=[N+]=[N-])C(OC(=O)CCCN=[N+]=[N-])C2OC(=O)CCCN=[N+]=[N-])cc1 (stereo not given in full) | > 100 µM (inactive) |
| CC1=N[C@](C)(C2CC3C=CC2C3=O)COC1=O (stereo not given in full) | > 100 µM (inactive) |
| COc1cc(OCc2nc3ccccc3n3cccc23)cc(OC)c1OC | 20.3 µM (inactive) |
| O=C1C=CC2(C=C1)O[C@H](COCc1ccccc1)[C@@H](COCc1ccccc1)O2 | 15.3 µM (inactive) |
| C/C=C1/CN2CCC34c5ccccc5N(C)C23C2CC1C4(C(=O)OC)C(OC(C)=O)O2 (stereo not given) | > 100 µM (inactive) |

====

- Test system: NCI-H23
- protocol.text: NCI tumour cell line growth inhibition, 48 h
Calls of active or inactive are those of the source. No stated cut-off is given here; in the data, active = GI50 up to about 1.1 µM and inactive = higher.
Outcomes: true (1) = active, false (0) = inactive

| compound | class.assignment |
| --- | --- |
| CCOC(=O)c1nc2cc(C(F)(F)F)ccc2nc1Nc1ccc(OC)cc1 | false (0) |
| Nc1cc(CO)cc(Nc2c3ccccc3nc3occc23)c1 | false (0) |
| COc1cc(CC2C(=O)OCC2Cc2ccc(OC)c(OC)c2)ccc1O (stereo not given) | false (0) |
| Cc1cc2c(C)nn(Cc3ccccc3Cl)c2c(C#N)c1C | false (0) |
| NC(=O)N/N=C(/c1nc2ccc([N+](=O)[O-])cc2nc1O)C(O)c1ccco1 (stereo not given) | false (0) |
| CC(C)(C)OC(=O)NCCC1SC2C=CC1C2 (stereo not given) | false (0) |
| Clc1ccc(Cc2nc3ccccc3o2)cc1 | false (0) |
| C/C(=C\c1csc(C)n1)[C@@H]1C[C@@H]2O[C@]2(C)CCC[C@H](C)[C@H](O)[C@@H](C)C(=O)C(C)(C)[C@@H](O)CC(=O)O1 [PATUPILONE] | true (1) |
| O=C(Nc1cc(Cl)ccc1Cl)c1cc2cccc(Cl)c2oc1=O | false (0) |
| O=C(c1ccco1)n1c2ccc(Br)cc2c2nc3ccccc3nc21 | false (0) |

====

- Test system: OVCAR-4
- protocol.text: NCI tumour cell line growth inhibition, 48 h
The source made the active and inactive calls. Rule as the data show it: active = GI50 up to about 1.1 µM and inactive = higher.
Quick list: GI50 per entry.
recorded.metric: GI50

| molecule | assay.result |
| --- | --- |
| CC(=O)NC1C(OC(C)C(=O)NC(C)C(=O)NC(CCC(=O)NCCCCCNc2ccc([N+](=O)[O-])c3[nH]c4ccccc4c(=O)c23)C(N)=O)C(O)C(CO)OC1(C)OCc1ccccc1 (stereo not given) | > 100 µM (inactive) |
| C[C@@]12[C@H]3CC[C@@H]1[C@H](O)C(=O)N2CC3 | > 100 µM (inactive) |
| O=C1C=CC2(C=C1)O[C@H](COCc1ccccc1)[C@@H](COCc1ccccc1)O2 | 2.23 µM (inactive) |
| O=c1[nH]nc(Cc2ccc([N+](=O)[O-])cc2)[nH]1 | > 100 µM (inactive) |
| Cc1cc(S(=O)(=O)Nc2n[nH]c(Nc3ccccc3)n2)c(S)cc1Cl | > 10 µM (inactive) |
| COC(=O)C1Cc2c(C)cccc2C1=O (stereo not given) | > 100 µM (inactive) |
| COc1ccc(/C=C2\CCCc3ccccc3C2=O)cc1 | 14.5 µM (inactive) |
| Cc1ccc(S(=O)(=O)Nn2c(S)c(C#N)c(-c3ccc([N+](=O)[O-])cc3)c(C#N)c2=O)cc1 | 24.7 µM (inactive) |
| Cc1ccc(NC(=O)C(Cc2c[nH]c3ccccc23)NC(=O)Oc2ccccc2)cc1C (stereo not given) | 44.3 µM (inactive) |
| CCOC(=O)/C(=C/c1cccc(C#N)c1)N(CC)CC | > 100 µM (inactive) |

====

Quick list: GI50 per entry.
- Tested on: DU-145
- protocol.text: NCI tumour cell line growth inhibition, 48 h
Activity calls are given as the source filed them. Cut-off read from the data, not from the text of the source: active = GI50 up to about 1.1 µM and inactive = higher.

| compound | GI50 |
| --- | --- |
| Cc1ccc(NC(=O)C(Cc2c[nH]c3ccccc23)NC(=O)Oc2ccccc2)cc1C (stereo unspecified) | > 100 µM (inactive) |
| N#CCc1c(F)c(F)c(F)c(F)c1F | > 100 µM (inactive) |
| O=[N+]([O-])c1ccccc1S(=O)(=O)c1cc(O)cc2c1NCCC2 | 20.7 µM (inactive) |
| OCCC/N=C1N=C(Cl)/C(=C\c2ccccc2)N\1 | > 100 µM (inactive) |
| C=CCN(c1cc(OCc2ccccc2)c2c(c1)c(C)cn2S(=O)(=O)c1ccccc1)S(C)(=O)=O | > 100 µM (inactive) |
| COc1ccc2nc3cccc([N+](=O)[O-])c3c(NCCC(=O)O)c2c1 | > 10 µM (inactive) |
| Nc1cnc(Nc2cccc3ccccc23)o1 | > 10 µM (inactive) |
| CCCCCCCCCCCCCCCCNc1nc(=O)n(C2OC(C)C(O)C2O)cc1F (stereo unspecified) | 19.5 µM (inactive) |
| CCOC(=O)C(NCc1ccc2c(c1)OCO2)(NC(=O)c1ccccc1)C(F)(F)F (stereo unspecified) | > 100 µM (inactive) |
| Cc1nc2c(sc3nc4ccccc4n32)c(=O)[nH]1 | > 100 µM (inactive) |
| N#CC1(C#N)C(C#N)(C#N)C1(C#N)C(N)=O | > 100 µM (inactive) |
| COc1ccc(Cl)cc1NC(=O)O/N=C(\Cl)C(C)C | 19.3 µM (inactive) |
| O=C1c2ccccc2-n2c1nc1ccccc1c2=O | 10.7 µM (inactive) |
| C/C=C1/CN2CCC34c5ccccc5N(C)C23C2CC1C4(C(=O)OC)C(OC(C)=O)O2 (stereo unspecified) | > 100 µM (inactive) |
| CCOC(=O)Nc1cc2ccccc2c(/N=N/c2ccccc2)c1O | > 100 µM (inactive) |
| C[C@H](CC[C@@H](O)C(C)(C)O)[C@H]1CC[C@@]2(C)[C@@H]3CC=C4[C@@H](CC[C@H](OC5OC(CO)C(O)C(O)C5O)C4(C)C)[C@]3(C)C(=O)C[C@]12C (stereo partly specified) | 39 µM (inactive) |
| COc1cc2c(cc1O)C1Cc3ccc(OC)c(O)c3C[N+]1(C)CC2 (stereo unspecified) | > 100 µM (inactive) |
| Cc1cccc2c1C(=O)[C@](C)([C@]1(C)Nc3cccc(C)c3C1=O)N2 | 54.1 µM (inactive) |
| Cc1ccc(OCCn2cc(Nc3ccccc3)c(=O)n(CCOc3ccc(C)cc3)c2=O)cc1 | > 100 µM (inactive) |
| O=C1c2ccccc2C(=O)N1n1c(Cc2ccc(Cl)cc2)n[nH]c1=O | > 100 µM (inactive) |
| C/C(=C\c1ccc(Cl)c(Cl)c1)[N+](=O)[O-] | 1.63 µM (inactive) |
